// values below are reported MFI
Biological target: T1, human LILRB2 (human, UniProt Q8N423 22-597)
T1 construct: whole, on cells; also called hLILRB2
T1 sequence (Q8N423 22-597): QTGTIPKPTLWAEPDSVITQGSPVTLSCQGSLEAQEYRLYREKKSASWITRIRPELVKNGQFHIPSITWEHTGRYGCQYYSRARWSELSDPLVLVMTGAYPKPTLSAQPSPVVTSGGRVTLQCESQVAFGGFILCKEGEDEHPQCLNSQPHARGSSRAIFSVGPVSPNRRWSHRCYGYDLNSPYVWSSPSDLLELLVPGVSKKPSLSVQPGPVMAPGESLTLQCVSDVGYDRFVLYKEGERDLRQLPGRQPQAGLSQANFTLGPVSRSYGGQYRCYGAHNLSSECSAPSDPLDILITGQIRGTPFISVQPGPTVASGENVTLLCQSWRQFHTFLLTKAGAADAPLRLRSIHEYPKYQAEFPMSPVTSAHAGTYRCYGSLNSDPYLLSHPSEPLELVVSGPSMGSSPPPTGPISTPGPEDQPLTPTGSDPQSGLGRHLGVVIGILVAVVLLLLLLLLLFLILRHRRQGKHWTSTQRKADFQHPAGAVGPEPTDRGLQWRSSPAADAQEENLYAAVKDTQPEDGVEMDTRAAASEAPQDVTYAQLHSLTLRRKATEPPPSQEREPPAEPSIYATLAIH
Assay: FACS, 293F-hLILRB2 cells
Reply with just the number (in MFI).

>  <binder>
44-F10-B6-D4 (antibody, V domains shown, mouse monoclonal hybridoma antibody) VH: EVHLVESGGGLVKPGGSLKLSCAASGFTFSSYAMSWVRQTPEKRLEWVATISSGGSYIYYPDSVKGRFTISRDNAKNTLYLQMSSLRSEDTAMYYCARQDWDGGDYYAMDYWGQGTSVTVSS VL: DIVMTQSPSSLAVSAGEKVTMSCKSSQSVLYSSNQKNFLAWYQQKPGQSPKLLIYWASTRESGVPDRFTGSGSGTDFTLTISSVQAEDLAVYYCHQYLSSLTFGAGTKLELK

>  <MFI (MFI)>
38.2

$$$$

Query: Requested read-out: MFI. Entry: 36-F4-H1-D9 (antibody, V domains shown, mouse monoclonal hybridoma antibody) VH: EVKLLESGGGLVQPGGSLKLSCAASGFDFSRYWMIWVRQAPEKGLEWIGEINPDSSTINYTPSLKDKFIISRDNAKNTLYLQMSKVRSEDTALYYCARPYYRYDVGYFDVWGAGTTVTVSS VL: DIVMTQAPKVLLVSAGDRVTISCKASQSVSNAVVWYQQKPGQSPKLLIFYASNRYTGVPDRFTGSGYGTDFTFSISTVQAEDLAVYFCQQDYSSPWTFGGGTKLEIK
Reply: 26.5

Query: Same again, this time with 8-B3-F6-H8 (antibody, V domains shown, mouse monoclonal hybridoma antibody) VH: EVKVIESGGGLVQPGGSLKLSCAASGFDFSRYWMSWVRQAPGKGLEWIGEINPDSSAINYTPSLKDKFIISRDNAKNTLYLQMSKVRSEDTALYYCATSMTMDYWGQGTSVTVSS VL: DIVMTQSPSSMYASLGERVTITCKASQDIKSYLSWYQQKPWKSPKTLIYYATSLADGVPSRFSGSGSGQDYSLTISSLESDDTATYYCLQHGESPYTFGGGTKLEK
Reply: 29.5
